Numbers sourced from the Immune Epitope Database (IEDB).

- Tested On: HLA-B*45:01
- Measurement Description: IEDB peptide-MHC binding, purified MHC/competitive/radioactivity; bounds were set here for any values at or beyond the usual limits of such assays
- Condition Info: source organism: Influenza A virus

[
  {
    "Input Sequence": "AESRKLLLI",
    "IC50": "167 nM"
  },
  {
    "Input Sequence": "AEIMKICST",
    "IC50": "139 nM"
  },
  {
    "Input Sequence": "CELTDSSWI",
    "IC50": "139 nM"
  },
  {
    "Input Sequence": "CEKLEQSGL",
    "IC50": "359 nM"
  }
]

====

- Tested On: HLA-B*40:01
- Measurement Description: IEDB peptide-MHC binding, purified MHC/competitive/radioactivity; bounds were set here for any values at or beyond the usual limits of such assays
- Condition Info: source organism: Influenza A virus
pIC50: −log10 of the molar value.
Reported pIC50 values for a set of sequences
Quantity Name: pIC50

[
  {
    "Input Sequence": "AESRKLLLI",
    "Result Value": 6.27
  },
  {
    "Input Sequence": "CELTDSSWI",
    "Result Value": 6.05
  }
]

====

- Tested On: HLA-A*26:01
- Measurement Description: IEDB peptide-MHC binding, purified MHC/competitive/fluorescence; bounds were set here for any values at or beyond the usual limits of such assays
- Condition Info: source organism: Influenza A virus
pIC50: −log10 of the molar value.

[
  {
    "Input Sequence": "ALASCMGLIY",
    "pIC50": 5.66
  },
  {
    "Input Sequence": "VSDGGPNLY",
    "pIC50": 4.59
  }
]

====

- Tested On: HLA-A*68:01
- Measurement Description: IEDB peptide-MHC binding, purified MHC/competitive/radioactivity; bounds were set here for any values at or beyond the usual limits of such assays
- Condition Info: source organism: Influenza A virus
pIC50: −log10 of the molar value.
Quantity Name: pIC50

[
  {
    "Input Sequence": "SFSFGGFTFK",
    "Quantity Name": "pIC50",
    "Result Value": 6.37
  },
  {
    "Input Sequence": "RMVLSAFDER",
    "Quantity Name": "pIC50",
    "Result Value": 6.20
  }
]

====

- Tested On: HLA-A*02:02
- Measurement Description: IEDB peptide-MHC binding, purified MHC/competitive/fluorescence; bounds were set here for any values at or beyond the usual limits of such assays
- Condition Info: source organism: Influenza A virus
pIC50: −log10 of the molar value.

[
  {
    "Input Sequence": "ALQLLLEV",
    "pIC50": 5.84
  },
  {
    "Input Sequence": "GLIYNRMGA",
    "pIC50": 5.18
  },
  {
    "Input Sequence": "QLVWMACHSAA",
    "pIC50": 5.56
  }
]

====

- Tested On: HLA-A*23:01
- Measurement Description: IEDB peptide-MHC binding, purified MHC/competitive/radioactivity; bounds were set here for any values at or beyond the usual limits of such assays
- Condition Info: source organism: Influenza A virus

[
  {
    "Input Sequence": "LYRKLKREITF",
    "Tested On": "HLA-A*23:01",
    "IC50": "195 nM"
  },
  {
    "Input Sequence": "SWPDGAELPF",
    "Tested On": "HLA-A*23:01",
    "IC50": "469 nM"
  }
]

====

Reported IC50 values for a set of sequences
- Tested On: HLA-B*45:01
- Measurement Description: IEDB peptide-MHC binding, purified MHC/competitive/fluorescence; bounds were set here for any values at or beyond the usual limits of such assays
- Condition Info: source organism: Influenza A virus
Quantity Name: IC50 (µM)

[
  {
    "Input Sequence": "YERMCNILKG",
    "Result Value": 19.8
  },
  {
    "Input Sequence": "AEKPKFLPDLY",
    "Result Value": 2.93
  },
  {
    "Input Sequence": "FESKSMKL",
    "Result Value": 53.7
  }
]

====

- Tested On: HLA-A*03:01
- Measurement Description: IEDB peptide-MHC binding, purified MHC/competitive/fluorescence; bounds were set here for any values at or beyond the usual limits of such assays
- Condition Info: source organism: Influenza A virus
pIC50: −log10 of the molar value.

[
  {
    "Input Sequence": "RMVLSAFDER",
    "pIC50": 5.23
  }
]

====

- Tested On: HLA-A*31:01
- Measurement Description: IEDB peptide-MHC binding, purified MHC/competitive/fluorescence; bounds were set here for any values at or beyond the usual limits of such assays
- Condition Info: source organism: Influenza A virus

[
  {
    "Input Sequence": "TLARSICEK",
    "IC50, µM": 8.12
  }
]

====

- Tested On: HLA-A*68:02
- Measurement Description: IEDB peptide-MHC binding, purified MHC/competitive/fluorescence; bounds were set here for any values at or beyond the usual limits of such assays
- Condition Info: source organism: Influenza A virus
Quantity Name: log10(IC50) (log10 of the value in µM)

[
  {
    "Input Sequence": "QLVWMACHSAA",
    "Result Value": 1.33
  },
  {
    "Input Sequence": "ILSPLTKGIL",
    "Result Value": 1.12
  },
  {
    "Input Sequence": "LLFLKVPA",
    "Result Value": 1.36
  },
  {
    "Input Sequence": "QIAILVTTV",
    "Result Value": 0.35
  },
  {
    "Input Sequence": "RTMAWTVVNSI",
    "Result Value": 0.18
  },
  {
    "Input Sequence": "QLMWALGENMA",
    "Result Value": 0.36
  }
]

====

- Tested On: HLA-B*18:01
- Measurement Description: IEDB peptide-MHC binding, purified MHC/competitive/radioactivity; bounds were set here for any values at or beyond the usual limits of such assays
- Condition Info: source organism: Influenza A virus
pIC50: −log10 of the molar value.
Quantity Name: pIC50

[
  {
    "Input Sequence": "YERMCNILKG",
    "Tested On": "HLA-B*18:01",
    "Quantity Name": "pIC50",
    "Result Value": 6.15
  },
  {
    "Input Sequence": "FEDLRVSSF",
    "Tested On": "HLA-B*18:01",
    "Quantity Name": "pIC50",
    "Result Value": 7.23
  }
]

====

Reported IC50 values for a set of sequences
- Tested On: HLA-B*44:02
- Measurement Description: IEDB peptide-MHC binding, purified MHC/competitive/fluorescence; bounds were set here for any values at or beyond the usual limits of such assays
- Condition Info: source organism: Influenza A virus
Quantity Name: IC50 (µM)

[
  {
    "Input Sequence": "FESKSMKL",
    "Quantity Name": "IC50",
    "Unit Info": "µM",
    "Result Value": 23.6
  },
  {
    "Input Sequence": "YERMCNILKG",
    "Quantity Name": "IC50",
    "Unit Info": "µM",
    "Result Value": 1.86
  },
  {
    "Input Sequence": "AEIMKICST",
    "Quantity Name": "IC50",
    "Unit Info": "µM",
    "Result Value": 5.12
  }
]

====

- Tested On: HLA-A*11:01
- Measurement Description: IEDB peptide-MHC binding, purified MHC/competitive/radioactivity; bounds were set here for any values at or beyond the usual limits of such assays
- Condition Info: source organism: Influenza A virus
Reported IC50 values for a set of sequences

[
  {
    "Input Sequence": "TLARSICEK",
    "IC50": "276 nM"
  },
  {
    "Input Sequence": "SFSFGGFTFK",
    "IC50": "160 nM"
  }
]

====

- Tested On: HLA-B*44:02
- Measurement Description: IEDB peptide-MHC binding, purified MHC/competitive/radioactivity; bounds were set here for any values at or beyond the usual limits of such assays
- Condition Info: source organism: Influenza A virus
Label key: Fulfilled means IC50 under 200 nM; Not fulfilled means IC50 of 200 nM or more.

[
  {
    "Input Sequence": "CEKLEQSGL",
    "Group Label": "Fulfilled"
  },
  {
    "Input Sequence": "CELTDSSWI",
    "Group Label": "Fulfilled"
  },
  {
    "Input Sequence": "FEDLRVSSF",
    "Group Label": "Not fulfilled"
  },
  {
    "Input Sequence": "AEKPKFLPDLY",
    "Group Label": "Not fulfilled"
  },
  {
    "Input Sequence": "AESRKLLLI",
    "Group Label": "Fulfilled"
  }
]

====

- Tested On: HLA-A*30:02
- Measurement Description: IEDB peptide-MHC binding, purified MHC/competitive/radioactivity; bounds were set here for any values at or beyond the usual limits of such assays
- Condition Info: source organism: Influenza A virus

[
  {
    "Input Sequence": "TFEFTSFFY",
    "Unit Info": "nM",
    "IC50": 422
  }
]
